For each entry below, report its first-order primary biodegradation rate constant k value.
method-notes: first-order primary biodegradation rate constant k (sorption-corrected, fDis-corrected) (d-1); higher = faster biodegradation
measurement-context: river segment: Spain (ES) L_Contam; incubation temperature 24 °C
Answer with a bare number; do not write a unit.

Q: Reported first-order primary biodegradation rate constant k, compound CCNc1nc(NC(C)(C)C)nc(SC)n1 [Terbutryn] : ____
A: 0.134

Q: What do you get for CCc1cccc(CC)c1N(COC)C(=O)CCl [Alachlor] ?
A: 0.12

Q: Next: Cc1ccc(-c2nc3ccc(C)cn3c2CC(=O)N(C)C)cc1 [Zolpidem]
A: 0.761

Q: Same question, CCN(CC)CC(=O)Nc1c(C)cccc1C [Lidocaine] this time
A: 0.118

Q: Now consider CCCCC(CC)COCC(O)CO (stereo not given) [3-((2-Ethylhexyl)oxy)propane-1,2-diol] .
A: 0.469

Q: Repeat for the following compound: Nc1nc(NC2CC2)c2ncn([C@H]3C=C[C@@H](CO)C3)c2n1 [Abacavir]
A: 2.21

Q: Same thing, different compound: CC(=O)NC[C@H]1CN(c2ccc(N3CCOCC3)c(F)c2)C(=O)O1 [Linezolid]
A: 0.0693

Q: O=[N+]([O-])c1ccc(Cc2ccncc2)cc1 [4-(4-Nitrobenzyl)pyridine] , same question.
A: 1.1

Q: Check CC1(C)C[C@@H]1C(=O)N/C(=C\CCCCSC[C@H](N)C(=O)O)C(=O)O [Cilastatin] too.
A: 12.5

Q: And the next one, O=C(O)Cc1ccccc1Nc1c(Cl)cccc1Cl [Diclofenac] ?
A: 0.158

* * *

method-notes: first-order primary biodegradation rate constant k (sorption-corrected, fDis-corrected) (d-1); higher = faster biodegradation
measurement-context: river segment: Greece (EL) L_Contam; incubation temperature 19 °C
assay-metric: first-order primary biodegradation rate constant k
Give only the figure.

Q: What does the data say about its first-order primary biodegradation rate constant k? Entry: COC(=O)c1ccc(O)cc1 [Methylparaben]
A: 0.211

Q: How about this molecule: OC(Cn1cncn1)(Cn1cncn1)c1ccc(F)cc1F [Fluconazole]
A: 0.0588

Q: Same thing, different molecule: Cc1cc(O)cc(C)c1Cl [4-Chloro-3,5-dimethylphenol]
A: 3.5

Q: Another molecule to look at: Cc1ccc(S(=O)(=O)O)cc1 [p-Toluenesulfonic acid]
A: 0.27

Q: Ok, now C/C(=N\C#N)N(C)Cc1ccc(Cl)nc1 [Acetamiprid]
A: 0.0691

Q: Note, next up: CC(=O)NC[C@H]1CN(c2ccc(N3CCOCC3)c(F)c2)C(=O)O1 [Linezolid]
A: 0.262

Q: Now this one: COc1ccc(C(CN(C)C)C2(O)CCCCC2)cc1 (stereo unspecified) [Venlafaxine]
A: 1.2

Q: Try this molecule next: COc1ccc(NC(=O)N(C)C)cc1Cl [Metoxuron]
A: 0.0742

Q: # repeat for Cn1c(=O)c2c(ncn2C)n(C)c1=O [Caffeine]
A: 0.276

Q: Try the molecule CCCCC(CC)COCC(O)CO (stereo unspecified) [3-((2-Ethylhexyl)oxy)propane-1,2-diol]
A: 5.22

Q: What do you have for Nc1nc(NC2CC2)c2ncn([C@H]3C=C[C@@H](CO)C3)c2n1 [Abacavir] ?
A: 12

Q: Field entry: COCC(C)N(C(=O)CCl)c1c(C)csc1C (stereo unspecified) [Dimethenamid]
A: 0.014

Q: Same again, this time with CC1(C(=O)Nc2ccc(O)c(Cl)c2Cl)CCCCC1 [Fenhexamid]
A: 0.493

Q: And the next one, COc1cc(Cc2cnc(N)nc2N)cc(OC)c1OC [Trimethoprim] ?
A: 1.57

Q: Item: CN(C)CCCC1(c2ccc(F)cc2)OCc2cc(C#N)ccc21 (stereo unspecified) [Citalopram]
A: 19.9

Q: Let us now turn to COc1cccc(C2(O)CCCCC2CN(C)C)c1 (stereo unspecified) [Tramadol]
A: 0.0437

Q: Now this one: O=C1Nc2ccc(Cl)cc2C(c2ccccc2)=NC1O (stereo unspecified) [Oxazepam]
A: 0.027

Q: Request: Cc1cc(NS(=O)(=O)c2ccc(N)cc2)no1 [Sulfamethoxazole]
A: 0.063

Q: Next up: Cc1ccc(C)c(OCCCC(C)(C)C(=O)O)c1 [Gemfibrozil]
A: 0.152

Q: CN(Cc1cnc2nc(N)nc(N)c2n1)c1ccc(C(=O)N[C@@H](CCC(=O)O)C(=O)O)cc1 [Methotrexate] ?
A: 6.29

Q: Also COc1ccc2cc([C@H](C)C(=O)O)ccc2c1 [Naproxen] , if possible.
A: 0.0444

* * *

method-notes: first-order primary biodegradation rate constant k (sorption-corrected, fDis-corrected) (d-1); higher = faster biodegradation
measurement-context: river segment: Greece (EL) A_Contam; incubation temperature 19 °C
Hi, to clarify the labels: fulfilled covers first-order primary biodegradation rate constant k from 0.4 upward, not fulfilled covers anything below 0.4.

Q: Does first-order primary biodegradation rate constant k meet or surpass 0.4 for COc1ccc2cc([C@H](C)C(=O)O)ccc2c1 ?
A: not fulfilled

Q: Quick one: CCCCC(CC)COCC(O)CO (configuration not stated)
A: not fulfilled

Q: Moving on to the next compound: COc1cc(NS(=O)(=O)c2ccc(N)cc2)nc(OC)n1
A: not fulfilled

Q: Now consider CCN1CCCC1CNC(=O)c1cc(S(=O)(=O)CC)c(N)cc1OC (configuration not stated) [Amisulpride] and answer again.
A: fulfilled

Q: Next: Cc1ccc(-c2nc3ccc(C)cn3c2CC(=O)N(C)C)cc1
A: fulfilled

Q: Same question for COC(=O)c1ccc(O)cc1 please.
A: not fulfilled

Q: Also COc1cc(Cc2cnc(N)nc2N)cc(OC)c1OC , if possible.
A: fulfilled

* * *

method-notes: first-order primary biodegradation rate constant k (sorption-corrected, fDis-corrected) (d-1); higher = faster biodegradation
measurement-context: river segment: Switzerland (CH) U_Contam; incubation temperature 17 °C
Please mark yes if the recorded first-order primary biodegradation rate constant k is equal to or greater than 0.08, and no if it falls below.

Q: Please indicate if the recorded first-order primary biodegradation rate constant k for CC(C)N(C(=O)COc1nnc(C(F)(F)F)s1)c1ccc(F)cc1 [Flufenacet] meets or exceeds 0.08.
A: no

Q: // next record CCc1cccc(C)c1N(C(=O)CCl)C(C)COC (configuration not stated) [Metolachlor]
A: no

Q: Proceed to Cc1cc(Cl)ccc1OC(C)C(=O)O (configuration not stated) [Mecoprop]
A: yes

Q: Then this molecule: CCOC(=O)C1CC(=O)C(=C(O)C2CC2)C(=O)C1 (configuration not stated) [Trinexapac-ethyl]
A: yes

Q: Further, for CCCCC(CC)COCC(O)CO (configuration not stated) [3-((2-Ethylhexyl)oxy)propane-1,2-diol] ?
A: yes

Q: And for CCOC(=O)c1ccc(O)cc1 [Ethylparaben] ?
A: no

Q: Also CN(C)C(=O)Nc1ccc(Cl)c(Cl)c1 [Diuron] ?
A: no

Q: Cc1ccc(NC(=O)N(C)C)cc1Cl [Chlortoluron] , same question.
A: no

Q: Query Cc1ccc(S(=O)(=O)O)cc1 [p-Toluenesulfonic acid] next
A: yes

Q: What about this molecule? CC(C)NCC(O)COc1cccc2ccccc12 (configuration not stated) [Propranolol]
A: yes

Q: Try this molecule next: CCN(CC)CC(=O)Nc1c(C)cccc1C [Lidocaine]
A: no

Q: Would you kindly repeat that for CN(C)CCCC1(c2ccc(F)cc2)OCc2cc(C#N)ccc21 (configuration not stated) [Citalopram] ?
A: yes

Q: And then CCCCc1nc(Cl)c(CO)n1Cc1ccc(-c2ccccc2-c2nnn[nH]2)cc1 [Losartan] , what is it?
A: yes

Q: Further, for CN(C)C(=O)Oc1cccc([N+](C)(C)C)c1 [Neostigmine] ?
A: yes

Q: Then c1ccc([C@H]2CN3CCSC3=N2)cc1 [Levamisole] ?
A: yes

Q: Try this molecule next: CCNc1nc(NC(C)(C)C)nc(SC)n1 [Terbutryn]
A: yes

Q: Here is the next molecule: O=S(=O)(O)NC1CCCCC1 [Cyclamate]
A: yes

Q: Param item: COc1ccc(NC(=O)N(C)C)cc1Cl [Metoxuron]
A: no

Q: What about O=C1Nc2ccc(Cl)cc2C(c2ccccc2)=NC1O (configuration not stated) [Oxazepam] ?
A: no

Q: Cool, now CCCCC(=O)N(Cc1ccc(-c2ccccc2-c2nnn[nH]2)cc1)[C@H](C(=O)O)C(C)C [Valsartan]
A: yes

Q: Note, next up: COCCc1ccc(OCC(O)CNC(C)C)cc1 (configuration not stated) [Metoprolol]
A: yes

* * *

Assign first-order primary biodegradation rate constant k to each entry below.
method-notes: first-order primary biodegradation rate constant k (sorption-corrected, fDis-corrected) (d-1); higher = faster biodegradation
measurement-context: river segment: Switzerland (CH) U_Contam; incubation temperature 17 °C
Would you mind answering with just the numeric figure?

Q: I'd like to know its first-order primary biodegradation rate constant k. The compound in question is COc1cc(Cc2cnc(N)nc2N)cc(OC)c1OC
A: 2.23

Q: # repeat for C=CCOc1ccccc1OCC(O)CNC(C)C (stereo not given)
A: 0.0534

Q: Again, but for CC(C)NCC(O)COc1ccc(CC(N)=O)cc1 (stereo not given)
A: 0.508

Q: Now give it for Cc1ccc(C(C)NC(=O)[C@@H](NC(=O)OC(C)C)C(C)C)cc1 (stereo not given in full) too.
A: 0.167

Q: Now the compound C/C(=N\C#N)N(C)Cc1ccc(Cl)nc1
A: 0.106

Values compiled from the supplement of paper PMC11562712.
